Biological target: T1, human PRLR construct with an HA tag on HEK293/hPRLR cells (human, UniProt P16471 25-622)
T1 sequence: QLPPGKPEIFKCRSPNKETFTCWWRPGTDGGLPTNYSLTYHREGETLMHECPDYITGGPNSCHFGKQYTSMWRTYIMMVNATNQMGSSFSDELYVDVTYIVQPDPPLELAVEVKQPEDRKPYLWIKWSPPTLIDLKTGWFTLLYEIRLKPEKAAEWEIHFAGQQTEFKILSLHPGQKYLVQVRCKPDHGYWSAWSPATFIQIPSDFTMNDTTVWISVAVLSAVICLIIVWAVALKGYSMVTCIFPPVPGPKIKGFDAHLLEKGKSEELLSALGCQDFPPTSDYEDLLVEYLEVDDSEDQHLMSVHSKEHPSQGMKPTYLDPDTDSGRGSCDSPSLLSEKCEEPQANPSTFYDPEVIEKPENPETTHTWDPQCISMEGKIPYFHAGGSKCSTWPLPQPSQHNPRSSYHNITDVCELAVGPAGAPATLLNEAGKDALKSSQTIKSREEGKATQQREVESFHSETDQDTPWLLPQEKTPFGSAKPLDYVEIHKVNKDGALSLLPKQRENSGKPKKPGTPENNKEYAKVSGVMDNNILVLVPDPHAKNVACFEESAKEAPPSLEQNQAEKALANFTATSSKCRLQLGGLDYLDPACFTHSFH
Assay: FACS on HEK293/hPRLR cells
quantity: FACS Cell Binding (Fold Above Background) (fold)

binder	unit	observed-measurement
H1H6781P (antibody, human IgG1, V domains shown, human IgG1 Fc (H1H)) VH: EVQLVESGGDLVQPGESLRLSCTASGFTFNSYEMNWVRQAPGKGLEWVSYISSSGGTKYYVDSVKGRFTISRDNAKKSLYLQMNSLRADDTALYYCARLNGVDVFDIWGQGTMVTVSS VL: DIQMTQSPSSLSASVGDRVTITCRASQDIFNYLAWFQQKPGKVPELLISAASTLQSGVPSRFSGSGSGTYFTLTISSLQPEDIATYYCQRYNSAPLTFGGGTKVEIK	fold	37
H1H6765P (antibody, human IgG1, V domains shown, human IgG1 Fc (H1H)) VH: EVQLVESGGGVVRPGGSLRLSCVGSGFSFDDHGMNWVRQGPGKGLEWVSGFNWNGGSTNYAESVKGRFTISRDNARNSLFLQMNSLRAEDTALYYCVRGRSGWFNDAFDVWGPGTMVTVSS VL: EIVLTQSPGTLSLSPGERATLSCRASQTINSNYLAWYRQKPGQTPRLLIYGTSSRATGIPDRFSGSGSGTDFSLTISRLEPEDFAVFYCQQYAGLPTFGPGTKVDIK	fold	38
H1H6762P (antibody, human IgG1, V domains shown, human IgG1 Fc (H1H)) VH: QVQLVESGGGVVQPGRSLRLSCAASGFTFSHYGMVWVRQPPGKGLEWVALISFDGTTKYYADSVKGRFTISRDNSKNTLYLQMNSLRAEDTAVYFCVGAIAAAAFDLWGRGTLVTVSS VL: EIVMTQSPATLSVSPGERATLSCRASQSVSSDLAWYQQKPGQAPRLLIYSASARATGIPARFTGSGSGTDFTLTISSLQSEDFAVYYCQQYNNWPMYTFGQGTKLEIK	fold	36
